Origin of the recorded values: patent US20260116970A1

# target_of_assay: T1, recombinant hSIRPα (extracellular portion) (human, UniProt P78324 31-373, biotinylated with Sulfo-NHS-LC-LC-Biotin where immobilised on streptavidin sensors)
# T1 construct: extracellular domain; The limits aa31-370 are stated for the immunogen; The BLI and HDX text says only 'recombinant hSIRPα' / 'biotinylated hSIRPα'; also called biotinylated hSIRPα
# protocol_description: BLI, biotinylated hSIRPα immobilised on streptavidin biosensors, Nb in solution, global 1:1 fit
metric: koff (s⁻¹)

binder | quantity_unit | obs_value
hSIRPα nanobody S12 (VHH, also called Nb S12) VHH: QVQLVESGGGLVQPGGSLRLSCLVSGFSSSYYAIGWFRQAPGKEREGVSCITRSGDTTNYADSVKGRFTISRDDARNTVYLQMNSLKTEDTAVYSCALWAWAGSGRLRCTASEYGHWGQGTQVTVSS | s⁻¹ | 0.0127
hSIRPα nanobody S33 (VHH, also called Nb S33) VHH: EVQLVESGGGLVQPGGSLRLSCTTSGFTLDYYSVGWFRQAPGKEREGVSCITASGSSTNYANSVKGRFTISRDKVKNTVYLQMSSLKPEDTAVYYCAAEPCTVVAGILQAPTSDFGSWGQGTQVTVSS | s⁻¹ | 0.00544
hSIRPα nanobody S8 (VHH, Purified by IMAC; the tag is not described; also called Nb S8) VHH: QVQLVESGGGLVQPGGSLRLSCADSEFRLDEYATGWFRQAPGKEREGVACISRSGSNTKYTDSVKGRFTISRDNAKKTVYLQMNSLKPEDTAVYYCAADLTSHYLSCSSYTDYNSWGQGTQVTVSS | s⁻¹ | 0.0009
hSIRPα nanobody S36 (VHH, also called Nb S36; hSIRPα-S36 Nb) VHH: EVQLVESGGGLVQPGGSLRLSCAASGFTLDYYAIGWFRQVPGKEREGVSCISSDGGGNTYYADSVKGRFTISRDNAKNTVYLQMNSLKPEDSAVYSCAAGPTYYSGSYCRDPHSDYDYWGQGTQVTVSS | s⁻¹ | 0.0002
hSIRPα nanobody S7 (VHH, Expressed from pHEN6 in E. coli and purified by IMAC; the tag is not described; also called Nb S7) VHH: HVQLVESGGGLVQVGDSLRLSCAPSGRTFRAYAMAWFRQAPGKEREFVAAIRWIGGTPSYKDSVKGRFTISRDNARNTFYLQMNSLEPQDTGVYYCAAEETQKGSGLGHDGRHYDYWGQGTPVTVSS | s⁻¹ | 0.0123
hSIRPα nanobody S41 (VHH, The single assignment S41 = 26 follows only from the listing order; also called Nb S41) VHH: HVQLVESGGGLVQPGGSLRLSCAASGETLDYYAIGYVRQAPGKEREGVSCISSRGDNTNYADSVKGRFTISRDNANNTVYLQMNSLKPEDTAVYYCVAIKDSWQNYYCSVGWVEYDVWGQGTQVTVSS | s⁻¹ | 0.00383
hSIRPα nanobody S45 (VHH, also called Nb S45) VHH: HVQLVESGGGLVQPGGSLRLSCAARGFSFRDSAMSWARQAPGKGLEWVGAIYSDGSTVYEKSVKGRFTISRDNAKNTMYLQMHSLKPEDSARYYCAPKGVVADEGDYSGQGTLVTVSS | s⁻¹ | 0.00164
hSIRPα nanobody S44 (VHH, also called Nb S44) VHH: QVQLQESGGGLVQPGGSLRLACAASGFTFSSYDMSWVRQAPGKGLEWVSDIKSGGGRTYYADSVKGRFTISRDNAKNTVYLQMNSLKPEDTAVYYCGSLDNSGAYTGGGQGSQVTVSS | s⁻¹ | 0.00915
